Below, each entry is listed with its recorded protein stability index.
B1: EDARADD (parent)
chain: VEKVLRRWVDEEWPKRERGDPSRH

# Variants of: B1
# assay: protein stability index of a GFP-peptide fusion (GPS, HEK-293T) (PSI 1-6); higher = more stable;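 note: lentivirally expressed fusions sorted by FACS into six bins by GFP to DsRed ratio, PSI derived from sequencing read proportions per bin multiplied by bin number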
# condition_label: c terminus: a fixed tail appended

Solved cases (4 shown):
variant_string: V9E
protein stability index: 4.17
//
variant_string: R16A
protein stability index: 3.55
//
variant_string: E17P
protein stability index: 1.68
//
variant_string: W13F
protein stability index: 2.01

Query :: Returns the measured protein stability index for the input variant. Input: V1Q
Result :: 2.65

Query :: Same read-out for V4I ?
Result :: 2.69
